assay: Pharmacokinetic studies in SD rats; format: in vivo; conditions: Sprague-Dawley (SD), rat, plasma

| molecule | half-life |
| --- | --- |
| N#Cc1ccc(COc2cccc(C3CCN(Cc4nc5ccc(C(=O)O)cc5n4C[C@@H]4CCO4)CC3)n2)c(F)c1 [PF-06882961, reference compound] | 3.13 h |
| O=C(O)c1ccc2nc(Cc3ccc(-c4cccc(OCc5ccc(Cl)c6cc(Cl)oc56)n4)cc3F)n(C[C@@H]3CCO3)c2c1 | 6 to 10 h |
| O=C(O)c1ccc2nc(Cc3ccc(-c4cccc(OCc5ccc(Cl)cc5F)n4)cc3F)n(C[C@@H]3CCO3)c2c1 [DB03, reference compound] | 2.94 h |
| O=C(O)c1ccc2nc(Cc3ccc(-c4cccc(OCc5ccc(Cl)c6cc(F)oc56)n4)cc3F)n(C[C@@H]3CCO3)c2c1 | 6 to 10 h |
| O=C(O)c1ccc2nc(Cc3ccc(-c4ccc(F)c(OCc5ccc(Cl)c6cc(F)oc56)n4)cc3F)n(C[C@@H]3CCO3)c2c1 | 6 to 10 h |
| O=C(O)c1ccc2nc(Cc3ccc(-c4ccc(F)c(OCc5ccc(Cl)c6cc(Cl)oc56)n4)cc3F)n(C[C@@H]3CCO3)c2c1 | 6 to 10 h |
| O=C(O)c1ccc2nc(Cc3ccc(-c4ccc(F)c(OCc5ccc(Cl)c6ccoc56)n4)cc3F)n(C[C@@H]3CCO3)c2c1 | 6 to 10 h |

###

target: GLP1R (Homo sapiens, UniProt P43220); experiment: Agonist activity on GLP1R/CRE-LUC HEK293 cells (luciferase reporter, ONE-Glo); details: GLP1R/CRE-LUC HEK293 cells, 6 hours incubation, chemiluminescence signal
Sequence (P43220 24-463): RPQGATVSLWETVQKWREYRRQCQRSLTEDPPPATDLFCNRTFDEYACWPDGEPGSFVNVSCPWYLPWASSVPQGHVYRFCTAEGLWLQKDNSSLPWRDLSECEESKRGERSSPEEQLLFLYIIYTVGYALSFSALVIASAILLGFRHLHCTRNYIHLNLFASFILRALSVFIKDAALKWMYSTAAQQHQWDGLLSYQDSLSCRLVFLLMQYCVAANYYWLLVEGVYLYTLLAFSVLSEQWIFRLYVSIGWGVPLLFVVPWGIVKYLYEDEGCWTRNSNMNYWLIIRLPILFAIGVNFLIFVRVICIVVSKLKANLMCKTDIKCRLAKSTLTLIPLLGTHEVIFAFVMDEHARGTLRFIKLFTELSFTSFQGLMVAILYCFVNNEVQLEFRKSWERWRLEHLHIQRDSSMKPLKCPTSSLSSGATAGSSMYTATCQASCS
Label true when EC50 is strictly below 6 nM; at or above that, label false.

| smilesInput | target | label |
| --- | --- | --- |
| O=C(O)c1ccc2nc(CC3CCN(c4cccc(OCc5ccc(Cl)c6ccoc56)n4)CC3)n(C[C@@H]3CCO3)c2c1 | GLP1R (Homo sapiens, UniProt P43220) | false |
| O=C(O)c1ccc2nc(Cc3c(F)cc(-c4cccc(OCc5ccc(Cl)c6ccoc56)n4)cc3F)n(C[C@@H]3CCO3)c2c1 | GLP1R (Homo sapiens, UniProt P43220) | true |
| O=C(O)c1ccc2nc(Cc3ccc(-c4ccc(F)c(OCc5ccc(F)c6cc(Cl)oc56)n4)cc3F)n(C[C@@H]3CCO3)c2c1 | GLP1R (Homo sapiens, UniProt P43220) | true |
| O=C(O)c1ccc2nc(Cc3ccc(-c4cccc(OCc5ccc(Cl)c6cc(F)oc56)n4)cc3F)n(C[C@@H]3CCO3)c2c1F | GLP1R (Homo sapiens, UniProt P43220) | true |
| O=C(O)c1ccc2nc(CN3CC=C(c4cccc(OCc5cccc6c5oc5ccccc56)n4)CC3)n(C[C@@H]3CCO3)c2c1 | GLP1R (Homo sapiens, UniProt P43220) | false |

###

target: GLP1R (Homo sapiens, UniProt P43220); assay: Agonist activity on GLP1R/CRE-LUC HEK293 cells (luciferase reporter, ONE-Glo); conditions: GLP1R/CRE-LUC HEK293 cells, 6 hours incubation, chemiluminescence signal

| compound | target | unitsOfMeasure | EC50 |
| --- | --- | --- | --- |
| O=C(O)c1ccc2nc(Cc3ccc(-c4nc(OCc5ccc(Cl)c6ccoc56)ccc4F)cc3F)n(C[C@@H]3CCO3)c2c1 [Compound 95] | GLP1R (Homo sapiens, UniProt P43220) | nM | 2.33 |
| O=C(O)c1ccc2nc(CN3CC=C(c4cccc(OCc5cccc6c5oc5ccccc56)n4)CC3)n(C[C@@H]3CCO3)c2n1 [Compound 14] | GLP1R (Homo sapiens, UniProt P43220) | nM | 6.76 |
| O=C(O)c1ccc2nc(Cc3ccc(-c4ccc(F)c(OCc5ccc(Cl)c6cc(Cl)oc56)n4)cc3F)n(C[C@@H]3CCO3)c2c1 [Compound 100] | GLP1R (Homo sapiens, UniProt P43220) | nM | 2.02 |
| O=C(O)c1cc(F)c2nc(Cc3ccc(-c4cccc(OCc5ccc(Cl)c6ccoc56)n4)cc3F)n(C[C@@H]3CCO3)c2c1 [Compound 105] | GLP1R (Homo sapiens, UniProt P43220) | nM | 1.09 |
| O=C(O)c1ccc2nc(Cc3ccc(-c4ccc(F)c(OCc5ccc(F)c6ccoc56)n4)cc3F)n(C[C@@H]3CCO3)c2c1 [Compound 103] | GLP1R (Homo sapiens, UniProt P43220) | nM | 1.17 |
| COCCn1c(Cc2ccc(-c3cccc(OCc4ccc(Cl)c5ccoc45)n3)cc2F)nc2ccc(C(=O)O)cc21 [DB05, reference compound] | GLP1R (Homo sapiens, UniProt P43220) | nM | 312 |
